- Target system: TLR8 (Homo sapiens)
- Measurement notes: PBMC assay for TLR8 (TNFα in supernatants by ELISA)
- Format: cell-based
- Parameters: Peripheral blood mononuclear cells (PBMCs) from human blood were isolated; endogenous in cells; host or cells: human PBMCs
- Applied conditions: human PBMCs incubated with compound overnight, MC50 = concentration at which 50% of the maximum induction is seen
Recorded EC50 for the following compounds

Here are 3 compounds together with their reported answers.
>>> measured_result("CCCN(CCC)C(=O)C1=Cc2ccc(-c3cccc(C#N)c3)cc2N=C(N)C1")
"1 to 100 nM"
>>> measured_result("CCCN(CCC)C(=O)C1=Cc2ccc(-c3ccc(C(=O)N4CC[C@@H](O)C4)cc3)cc2N=C(N)C1")
"1 to 100 nM"
>>> measured_result("CCCN(CCC)C(=O)C1=Cc2ccc(-c3ccc(C(=O)N4C[C@@H](O)[C@H](O)C4)cc3)cc2N=C(N)C1")
"100 to 1000 nM"

GET /value?item= `CCCN(CCCO)C(=O)C1=Cc2ccc(-c3ccc(C(=O)OCC)cc3)cc2N=C(N)C1` &field=EC50 returns 100 to 1000 nM

====

- Target system: TLR8 (Homo sapiens, UniProt Q9NR97)
- Sequence (Q9NR97 27-1041): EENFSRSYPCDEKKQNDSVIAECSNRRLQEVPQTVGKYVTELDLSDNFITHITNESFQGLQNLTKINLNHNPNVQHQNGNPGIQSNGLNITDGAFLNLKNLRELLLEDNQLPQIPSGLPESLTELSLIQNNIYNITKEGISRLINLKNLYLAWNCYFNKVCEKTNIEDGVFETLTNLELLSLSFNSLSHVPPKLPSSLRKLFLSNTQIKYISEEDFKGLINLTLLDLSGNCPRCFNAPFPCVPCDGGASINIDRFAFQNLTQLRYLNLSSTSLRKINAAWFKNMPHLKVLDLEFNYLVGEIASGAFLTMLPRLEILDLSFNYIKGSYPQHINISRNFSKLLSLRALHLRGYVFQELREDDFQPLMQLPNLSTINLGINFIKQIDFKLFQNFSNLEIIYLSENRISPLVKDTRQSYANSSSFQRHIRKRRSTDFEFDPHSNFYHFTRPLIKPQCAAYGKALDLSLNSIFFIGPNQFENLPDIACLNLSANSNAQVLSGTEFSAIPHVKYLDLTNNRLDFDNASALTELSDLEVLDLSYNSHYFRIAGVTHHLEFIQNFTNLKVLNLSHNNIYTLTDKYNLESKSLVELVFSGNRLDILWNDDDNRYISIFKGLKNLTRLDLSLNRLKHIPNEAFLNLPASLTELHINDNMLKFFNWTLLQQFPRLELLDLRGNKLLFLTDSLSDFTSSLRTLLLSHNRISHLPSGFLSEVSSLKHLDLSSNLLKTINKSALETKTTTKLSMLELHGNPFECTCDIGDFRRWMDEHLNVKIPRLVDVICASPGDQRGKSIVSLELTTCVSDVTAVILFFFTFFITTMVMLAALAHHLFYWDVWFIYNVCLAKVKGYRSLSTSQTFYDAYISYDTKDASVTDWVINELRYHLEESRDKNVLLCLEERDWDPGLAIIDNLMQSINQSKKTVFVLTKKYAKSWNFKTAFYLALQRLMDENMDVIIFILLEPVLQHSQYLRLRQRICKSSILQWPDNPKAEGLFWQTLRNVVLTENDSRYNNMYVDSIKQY
- Measurement notes: PBMC assay for TLR8 (TNFα in supernatants by ELISA)
- Type: cell-based
- Set-up: Peripheral blood mononuclear cells (PBMCs) from human blood were isolated; endogenous in cells; host or cells: human PBMCs
- Applied conditions: human PBMCs incubated with compound overnight, MC50 = concentration at which 50% of the maximum induction is seen
Reported metric: EC50

>>> measured_result("CCCN(CCNS(C)(=O)=O)C(=O)C1=Cc2ccc(-c3ccc(C(=O)N4CCCC4)cc3)cc2N=C(N)C1")
"1000 to 10000 nM"
>>> measured_result("CCCN(CCC)C(=O)C1=Cc2ccc(-c3cccc(C(=O)O)c3)cc2N=C(N)C1")
"10000 to 100000 nM"
>>> measured_result("CCCN(CCCO)C(=O)C1=Cc2ccc(-c3ccccc3C(=O)OCC)cc2N=C(N)C1")
"100 to 1000 nM"
>>> measured_result("CCOC(=O)C1=Cc2ccc(-c3cccnc3)cc2N=C(N)C1")
"1 to 100 nM"
>>> measured_result("CCCN(CCC)C(=O)C1=Cc2ccc(-c3ccc(C(=O)N4CCCCC4)cc3)cc2N=C(N)C1")
"100 to 1000 nM"
>>> measured_result("CCOC(=O)C1=Cc2ccc(-c3ccc(C(=O)N(CC)CC)cc3)cc2N=C(N)C1")
"100 to 1000 nM"

// EC50 (TLR8 (Homo sapiens, UniProt Q9NR97)) for `CCCN(CCC)C(=O)C1=Cc2ccc(-c3ccc(C(=O)N4C[C@H](O)[C@@H](O)C4)cc3)cc2N=C(N)C1` = 100 to 1000 nM

Bench note, TLR8 (Homo sapiens, UniProt Q9NR97): entry `CCCNC(=O)C1=Cc2ccc(-c3ccc(C(=O)N4CCCC4)cc3)cc2N=C(N)C1` , its EC50 = 100 to 1000 nM

====

Here the recorded pEC50 is given for each entry.
- Target system: TLR8 (Homo sapiens)
- Measurement notes: PBMC assay for TLR8 (TNFα in supernatants by ELISA)
- Format: cell-based
- Design: Peripheral blood mononuclear cells (PBMCs) from human blood were isolated; endogenous in cells; host or cells: human PBMCs
- Applied conditions: human PBMCs incubated with compound overnight, MC50 = concentration at which 50% of the maximum induction is seen
pEC50: −log10 of the molar value.

Take a look at these entries with their results.
>>> measured_result("CCCN(CC(C)(C)O)C(=O)C1=Cc2ccc(-c3ccc(C(=O)N4CCCC4)cc3)cc2N=C(N)C1")
"6.00 to 7.00"
>>> measured_result("CCCN(C(=O)C1=Cc2ccc(-c3ccc(C(=O)N4CCCC4)cc3)cc2N=C(N)C1)C(C)CC (stereo not shown)")
"6.00 to 7.00"
>>> measured_result("CCCN(CCC)C(=O)C1=Cc2ccc(-c3ccc(C(=O)N(C)C)cc3)cc2N=C(N)C1")
"6.00 to 7.00"
>>> measured_result("CCOC(=O)C1=Cc2ccc(-c3ccc(C(=O)N(C)C)cc3)cc2N=C(N)C1")
"6.00 to 7.00"

pEC50 for `CCCN(CCCO)C(=O)C1=Cc2ccc(-c3ccc(/C=C/C(=O)OCC)cc3)cc2N=C(N)C1` is 6.00 to 7.00

Noted for `CCCN(CCC)C(=O)C1=Cc2ccc(-c3ccc(C(=O)O)cc3)cc2N=C(N)C1` : its pEC50 reads 5.00 to 6.00

pEC50 measured on `NC1=Nc2cc(-c3ccc(C(=O)N4CCCC4)cc3)ccc2C=C(C(=O)N(C2CCNCC2)C2CC2)C1` = 5.00 to 6.00

get_value(item= `CCOC(=O)C1=Cc2ccc(-c3ccccn3)cc2N=C(N)C1` , readout=pEC50) returns 6.00 to 7.00

Entry `NC1=Nc2cc(-c3ccc(C(=O)N4CCCC4)cc3)ccc2C=C(C(=O)N2C[C@@H](O)[C@H](O)C2)C1` — recorded pEC50 = 5.00 to 6.00

====

- Target system: TLR8 (Homo sapiens, UniProt Q9NR97)
- Sequence (Q9NR97 27-1041): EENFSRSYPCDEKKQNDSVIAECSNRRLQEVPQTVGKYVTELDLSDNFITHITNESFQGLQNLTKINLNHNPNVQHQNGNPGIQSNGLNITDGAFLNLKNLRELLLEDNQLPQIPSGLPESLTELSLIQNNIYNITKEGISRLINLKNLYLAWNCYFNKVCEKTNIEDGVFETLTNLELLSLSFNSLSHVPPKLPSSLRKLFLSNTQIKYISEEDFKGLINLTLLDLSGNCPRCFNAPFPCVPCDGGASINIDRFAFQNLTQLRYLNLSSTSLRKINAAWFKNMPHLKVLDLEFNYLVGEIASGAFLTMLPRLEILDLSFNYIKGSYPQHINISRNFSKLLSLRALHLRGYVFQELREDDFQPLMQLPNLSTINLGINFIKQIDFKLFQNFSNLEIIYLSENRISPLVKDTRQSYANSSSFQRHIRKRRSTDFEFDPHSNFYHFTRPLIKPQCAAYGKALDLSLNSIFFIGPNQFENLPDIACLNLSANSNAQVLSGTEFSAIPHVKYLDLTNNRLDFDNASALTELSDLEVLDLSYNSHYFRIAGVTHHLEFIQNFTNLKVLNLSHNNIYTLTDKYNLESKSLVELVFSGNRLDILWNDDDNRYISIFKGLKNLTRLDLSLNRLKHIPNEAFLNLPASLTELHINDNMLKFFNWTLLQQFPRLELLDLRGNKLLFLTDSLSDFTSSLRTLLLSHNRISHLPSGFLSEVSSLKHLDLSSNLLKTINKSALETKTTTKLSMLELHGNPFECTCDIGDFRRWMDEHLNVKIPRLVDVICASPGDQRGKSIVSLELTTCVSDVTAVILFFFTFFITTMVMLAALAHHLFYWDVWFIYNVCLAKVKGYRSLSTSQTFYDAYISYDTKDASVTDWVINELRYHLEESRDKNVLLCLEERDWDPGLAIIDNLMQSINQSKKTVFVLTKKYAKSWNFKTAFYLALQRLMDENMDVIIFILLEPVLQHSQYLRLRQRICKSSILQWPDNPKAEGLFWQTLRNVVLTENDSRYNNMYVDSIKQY
- Measurement notes: TLR8 activity, MC50 values (procedure only by reference to Gorden et al. and Zhu et al.)
- Assay type: cell-based
- Applied conditions: assay format not given
pEC50: −log10 of the molar value.
Reported metric: pEC50

Field: example entries. Status: answers known.
>>> measured_result("CCCN(CCCO)C(=O)C1=Cc2ccc(-c3ccc(C(=O)OCC)cc3)cc2N=C(N)C1")
6.71
>>> measured_result("CCOC(=O)C1=Cc2ccc(-c3ccc(C(=O)N(C)C)cc3)cc2N=C(N)C1")
6.94

[A] CCCN(CCC)C(=O)C1=Cc2ccc(-c3ccc(C(=O)N4CC[C@@H](O)C4)cc3)cc2N=C(N)C1
[B] CCCN(C[C@@H](C)O)C(=O)C1=Cc2ccc(-c3ccc(C(=O)N4CCCC4)cc3)cc2N=C(N)C1 (single isomer, unassigned)
[C] CCOC(=O)C1=Cc2ccc(-c3ccncc3)cc2N=C(N)C1
[D] CCCN(CCC)C(=O)C1=Cc2ccc(-c3ccc(C(=O)N(C)C)cc3)cc2N=C(N)C1
Sort (4 compounds) by pEC50: min first. Sort the labels as requested; that list is your answer.
D, C, B, A
(D: 6.98, C: 7.35, B: 8.00, A: 8.40)
